- Conditions: dihydrochloride

[
  {
    "Molecule": "C[C@H](O)[C@H](O)[C@H]1CNc2nc(N)[nH]c(=O)c2N1.Cl.Cl [form F]",
    "hygroscopicity": "slightly hygroscopic"
  },
  {
    "Molecule": "C[C@H](O)[C@H](O)[C@H]1CNc2nc(N)[nH]c(=O)c2N1.Cl.Cl [form K]",
    "hygroscopicity": "slightly hygroscopic"
  },
  {
    "Molecule": "C[C@H](O)[C@H](O)[C@H]1CNc2nc(N)[nH]c(=O)c2N1.Cl.Cl [form D]",
    "hygroscopicity": "slightly hygroscopic"
  },
  {
    "Molecule": "C[C@H](O)[C@H](O)[C@H]1CNc2nc(N)[nH]c(=O)c2N1.Cl.Cl [form J]",
    "hygroscopicity": "slightly hygroscopic"
  },
  {
    "Molecule": "C[C@H](O)[C@H](O)[C@H]1CNc2nc(N)[nH]c(=O)c2N1.Cl.Cl [form B]",
    "hygroscopicity": "slightly hygroscopic"
  },
  {
    "Molecule": "C[C@H](O)[C@H](O)[C@H]1CNc2nc(N)[nH]c(=O)c2N1.Cl.Cl [form C]",
    "hygroscopicity": "slightly hygroscopic"
  },
  {
    "Molecule": "C[C@H](O)[C@H](O)[C@H]1CNc2nc(N)[nH]c(=O)c2N1.Cl.Cl [form A]",
    "hygroscopicity": "slightly hygroscopic"
  }
]
